- experiment: Quantitative High-Throughput drug screen in 47 multiple myeloma cell lines against the NCATS MIPE library collection: L363_DSMZ cell viability assay (AID 1918984); note: nearly all actives have a fitted effect of over 40% in size
- condition_info: L363 myeloma viability, CellTiter-Glo ATP luminescence, 48 h; series mostly up to 45.8 µM
Inconclusive results are not listed. The source made the active and inactive calls. Calls come from the whole dose curve; as a rule, active = well fitted cell-killing curve with a large enough effect; inconclusive = small, poorly fitted or top-dose-only effect, or effect the other way; inactive = no such curve, though single readings can be large or run the other way.
Select the correct class. Options are class 1 for active, class 0 for inactive and nothing else.

compound=COc1ccc2c(c1)c(CC(=O)O)c(C)n2C(=O)c1ccc(Cl)cc1 class_assignment="class 1"

Now for another entry.
# outcome recorded in this test, key = CN(C)c1nc(N(C)C)nc(N(C)C)n1
class 0

----------
- Test system: CP203
- experiment: qHTS profiling for inhibitors of Plasmodium falciparum proliferation (AID 504749); note: nearly all actives have a fitted effect of over 60% in size
- condition_info: P. falciparum in erythrocytes, SYBR Green DNA, 72 h; series mostly up to 28.7 µM
Results filed as inconclusive are left out. The source made the active and inactive calls. Calls follow the shape of the dose curve; as a rule, active = well fitted inhibition curve with a large enough effect; inconclusive = small, poorly fitted or top-dose-only effect; inactive = flat fitted curve, though single readings scatter.
Select the correct class. Options are active, inactive and nothing else.

Solved cases below.
item_smiles=O=c1c(-c2ccc(O)cc2)coc2cc(O)cc(O)c12 class_assignment=inactive
item_smiles=CC12CC3CC(C)(C1)CC(N)(C3)C2 class_assignment=inactive

Now for another entry.
# outcome recorded in this test, key = CC#C[C@]1(O)CC[C@H]2[C@@H]3CCC4=CC(=O)CCC4=C3[C@@H](c3ccc(N(C)C)cc3)C[C@@]21C
active
